# Tested on: DU-145 prostate
# Protocol: NCI-60 one-dose screen, 48 h (100 = growth as untreated, 0 = no growth, -100 = all killed)
# Test Settings: 10 µM unless noted
This is part of a sample that, as a whole, favours compounds with a hit. Of some 83,000 tested, about 20% had one in any assay. Activity calls are given as the source filed them. The calls were made as follows: active = growth percent below 10; inactive = the rest.
Value Kind: growth

Some solved entries appear below for comparison.
Molecule	Value Kind	Measured
CCNC(=O)N1CCc2cc(OC)c(OCCc3ccc(OC)cc3)cc2C1c1ccc(Cl)cc1C (centres undefined)	growth	16.2% (inactive)
O=C(NNc1nc2cc(F)c(F)cc2n2c(CN3CC4CNCC4C3)ccc12)c1ncccn1 (centres undefined)	growth	24% (inactive)
O=S(=O)(Oc1ccc(-c2nnc(Nc3ccccc3)s2)cc1)C(F)(F)C(F)(F)C(F)(F)C(F)(F)C(F)(F)C(F)(F)F	growth	107% (inactive)
CCO/C=N/C1=C(C#N)C(c2ccc(OC)cc2)c2sc3c(C)cccc3c2O1 (centres undefined)	growth	22% (inactive)
CC1=N[C@@H]2CN(C(=O)OC(C)(C)C)C[C@@H]2n2c1cc1ccccc1c2=O	growth	111% (inactive)
Oc1[nH]c2ccccc2c1Nn1c(N=N/C=c2/ccc3c(c2)C=NN=3)n[nH]c1=S	growth	99.1% (inactive)

Query for DU-145 prostate: what growth does the record show for `O=C(Nc1ccc2c(ccn2Cc2ccccn2)c1)c1cnccn1` ?
95.6% (inactive)

====

# System: DU-145 prostate
# Protocol: NCI-60 one-dose screen, 48 h
# Test Settings: 10 µM unless noted
About 83,000 compounds went through this panel and 20% of them were active in at least one assay; those are over-represented in the sample as a whole. Activity calls are given as the source filed them. Rule for the calls: active = growth percent below 10; inactive = the rest.
Respond using exactly one of the listed classes: active, inactive

Observe how each entry below is paired with its result.
Compound	Discrete Label
O=C(Nc1ccc(Br)cc1)Nc1nc2ccc([N+](=O)[O-])cc2s1	inactive
CNC(=O)c1cc(Oc2ccc3nc(NC(=O)c4ccc(N5CCOCC5)c(C(F)(F)F)c4)sc3c2)ccn1	inactive
Cn1ccnc1C(=O)/C=C/c1ccc(NC(=O)c2ccc(F)cc2)cc1	active
COc1cc(C2N=C(NNc3ccccc3)NC(C)=C2C(C)=O)ccc1O (centres undefined)	inactive
NS(=O)(=O)c1ccc(-n2cc(-c3cccc(NC(=O)c4ccc(N5CCOCC5)c(C(F)(F)F)c4)c3)nn2)cc1	inactive
C#CCOc1ccc(/C=N\Nc2nc(-c3ccc(C)cc3)cs2)cc1OC	inactive

// outcome(item) with item = COc1cc2nc(Cl)nc(Nc3cccc(C4=Nc5c(N)nc(N)nc5NC(c5ccc(Cl)cc5)C4)c3)c2cc1OC (centres undefined)
inactive

// outcome(item) with item = `C#Cc1nc(C(C)=O)cs1`
inactive

// outcome(item) with item = `C/C(=N\O)[C@H]1C[C@]23CC[C@]4(C)[C@H](CC[C@@H]5[C@@]6(C)CC/C(=N/O)C(C)(C)[C@@H]6CC[C@]54C)[C@H]2[C@H](C)C1(C)OC3`
inactive

====

# Tested on: KM12 colon
# Protocol: NCI-60 one-dose screen, 48 h
# Test Settings: 10 µM unless noted
The panel holds about 83,000 compounds, 20% with a hit somewhere; the sample as a whole holds those more often. The source made the active and inactive calls. Rule for the calls: active = growth percent below 10; inactive = the rest.
Respond using exactly one of the listed classes: Y for active, N for inactive

COc1ccc([C@@H]2[C@@H](O)C(=O)N2c2cc(OC)c(OC)c(OC)c2)cc1F Y
CC1(C)CC[C@]2(C(=O)O)CC[C@]3(C)C(=CC[C@@H]4[C@@]5(C)CC/C(=N\OCCC#N)C(C)(C)[C@@H]5CC[C@]43C)[C@@H]2C1 N
C=C(C=O)[C@@H]1CC[C@]2(CO)CC[C@]3(C)[C@H](CC[C@@H]4[C@@]5(C)CCCNC(C)(C)[C@@H]5CC[C@]43C)[C@@H]12 Y
O=C(CNc1nc(-c2cccc([N+](=O)[O-])c2)cs1)Nc1cccc([N+](=O)[O-])c1 Y
Cc1cccc(/C=C/C(=O)Nc2ncc(Cc3cccc(C)c3)s2)c1 Y
COc1ccc([C@@H]2c3[nH]c4ccccc4c3C[C@H]3C(=O)N(C4CCN(CC5CCCCC5)CC4)CC(=O)N23)c(OC)c1 N
CN(C)C(=O)c1cc(-c2ccc3ncnc(NCc4ccccc4)c3c2)cnc1N N

// outcome(item) with item = `O=C(CSc1nc2ccccc2c(=O)n1-c1ccccc1)Nc1ccc(-c2nc3ccc([N+](=O)[O-])cc3[nH]2)cc1`
N

====

# Tested on: A498 renal
# Protocol: NCI-60 one-dose screen, 48 h (100 = growth as untreated, 0 = no growth, -100 = all killed)
# Test Settings: 10 µM unless noted
Compounds without any hit were thinned out: in the full panel of roughly 83,000, 20% have a hit.
Respond with yes (1) for growth values of 80% and above, no (0) for values below.

Observe how each entry below is paired with its result.
O=C(/C=C/c1ccc(F)cc1)c1ccc(O)cc1 yes (1)
O=C(Nc1ccc(N=Cc2c(O)[nH]c3ccccc23)cc1)Nc1nccs1 no (0)
CC(=O)Nc1cccc(Nc2nc(N[C@@H](C)c3ccccc3)c3ccccc3n2)c1 no (0)
O=C1[C@@H]2Cc3c([nH]c4ccccc34)[C@H](c3c(Cl)cccc3Cl)N2C(=O)CN1C1CCN(CC2CCCCC2)CC1 yes (1)
Cc1cc(-c2ccc(Cl)cc2)n(Cc2nnc(SCC(=O)Nc3ccc(S(N)(=O)=O)cc3)n2C2CCCCC2)n1 yes (1)

Check if growth >= 80% (inclusive). Item: `O=C(CN1CCN(c2cc(=O)n(-c3ccccc3)c3ccccc23)CC1)Nc1cccc(C(F)(F)F)c1`
no (0)

Check if growth >= 80% (inclusive). Item: `NC(N)=Nc1ccc(Oc2cccc(NC(N)=Nc3ccc(I)cc3F)c2)cn1`
no (0)

Check if growth >= 80% (inclusive). Item: `O=C(CCn1cc[n+](CC(=O)c2ccc(-c3ccccc3)cc2)c1)Nc1cccc2cccnc12`
yes (1)

Check if growth >= 80% (inclusive). Item: `CCN(CC)CCn1c2ccc(O)cc2c2sc3cc(OC)ccc3c(=O)c21`
no (0)

====

# Test system: SK-MEL-28 melanoma
# Protocol: NCI-60 one-dose screen, 48 h
# Test Settings: 10 µM unless noted
Compounds without any hit were thinned out: in the full panel of roughly 83,000, 20% have a hit. Active and inactive are the calls of the source. The calls were made as follows: active = growth percent below 10; inactive = the rest.
Respond using exactly one of the listed classes: class 1 for active, class 0 for inactive

// outcome(item) with item = `C#Cc1nc(/C=C/C(=O)c2nccn2C)cs1`
class 1

====

Here the recorded growth is given for each entry.
# System: SW-620 colon
# Protocol: NCI-60 one-dose screen, 48 h (100 = growth as untreated, 0 = no growth, -100 = all killed)
# Test Settings: 10 µM unless noted
About 83,000 compounds went through this panel and 20% of them were active in at least one assay; those are over-represented in the sample as a whole.
# number only, unit % dropped from output

Compound	Measured
CCCCCc1ccc(S(=O)(=O)Nc2cccc(-c3csc(NC(=O)CCCCCN4CCN(C)CC4)n3)c2)cc1	-27.1
O=C(Nc1ccc2c(ccn2Cc2ccccn2)c1)c1ccnnc1	101
CNC(=O)c1cc(-n2ccc3cc(NC(=O)Nc4ccc(N5CCOCC5)c(C(F)(F)F)c4)ccc32)ccn1	62.5
Nc1ncc(-c2ccc3ncnc(N4CCc5cc(F)c(Cl)cc54)c3c2)cn1	40.7
Cc1ccc(-n2cc(/C=C/C(=O)c3ccc(O)cc3)c(-c3ccc(S(C)(=O)=O)cc3)n2)cc1	34
C=C1CC[C@@H]2[C@]3(C)COC(c4ccccc4)O[C@@H]3CC[C@@]2(C)[C@@H]1C/C=C1/C(=O)OC[C@H]1O (stereo not given in full)	49.7
COC(=O)c1[nH]nc2c1C1(C(=O)c3cccc4cccc1c34)C(C#N)=C(N)O2 (stereo not given)	100
CCn1c(SCC(=O)Nc2cccc(C(=O)/C=C/c3ccccc3Cl)c2)nc2ccccc2c1=O	72.8

Reported growth for `O=C(O)c1ccc(-n2cc(CNc3cc(F)c(F)c(F)c3)c(-c3ccc(F)cc3)n2)cc1` : what is it?
103

Reported growth for `Oc1[nH]c2ccccc2c1Nn1c(N=N/C=c2/ccc3c(c2)C=NN=3)n[nH]c1=S` : what is it?
99

====

# System: SF-268 CNS
# Protocol: NCI-60 one-dose screen, 48 h (100 = growth as untreated, 0 = no growth, -100 = all killed)
# Test Settings: 10 µM unless noted
This is part of a sample that, as a whole, favours compounds with a hit. Of some 83,000 tested, about 20% had one in any assay.
Respond with class 1 for growth values of 80% and above, class 0 for values below.

Smiles Text	Discrete Label
CCCCc1nc(/C=N/Nc2nc(Nc3ccccc3)nc(Nc3ccc(S(N)(=O)=O)cc3)n2)c(Cl)[nH]1	class 0
C=C(C)[C@@H]1CC[C@]2(COP(=O)(OCC)OCC)CC[C@]3(C)[C@H](CC[C@@H]4[C@@]5(C)CCCNC(C)(C)[C@@H]5CC[C@]43C)[C@@H]12	class 0
Cc1ccc(S(=O)(=O)N(CC[C@@H]2C[C@H]2c2cc3ccccc3o2)S(=O)(=O)c2ccc(C)cc2)cc1	class 1

Check if growth >= 80% (inclusive). Item: `O=S(=O)(NCCNc1nccc(-n2cnc3ccccc32)n1)c1ccc(Br)cc1`
class 1
